I'd be grateful if you could share measured growth for these entries.
- System: UACC-62 melanoma
- Run Description: NCI-60 one-dose screen, 48 h (100 = growth as untreated, 0 = no growth, -100 = all killed)
- Experimental Parameters: 10 µM unless noted
Compounds without any hit were thinned out: in the full panel of roughly 83,000, 20% have a hit.
Write the value in % as a bare number.

Input line: Name the reported growth value associated with the molecule `O=C1C=CC(=O)N1c1ccccn1`
Output line: 95

Input line: Name the reported growth value associated with the molecule c1ccc2nc(N/N=C3\CCCCC3C3CCCCC3)ccc2c1 (stereo not drawn)
Output line: 50.8

Input line: Name the reported growth value associated with the molecule `CC[n+]1c(/C=C/c2ccc(N3CCCC3)cc2)cccc1/C=C/c1ccc(N2CCCC2)cc1`
Output line: -86

Input line: Name the reported growth value associated with the molecule `COC(=O)CC1=C(c2ccc([N+](=O)[O-])cc2)CCC1=O`
Output line: 100

Input line: Name the reported growth value associated with the molecule `COc1cccc(N2CCN(c3cccc(C)n3)CC2)c1`
Output line: 95.1

Input line: Name the reported growth value associated with the molecule `COc1cc(OC)c2c(c1Cl)O[C@]1(C2=O)C(OCc2ccccc2)=CC(=O)C[C@H]1C`
Output line: 6.94

Input line: Name the reported growth value associated with the molecule `O=C(NCCNC(=O)Oc1cccc2ccccc12)Oc1cccc2ccccc12`
Output line: 91.1

Input line: Name the reported growth value associated with the molecule COc1ccc(C2=NN(C(C)=O)C(c3c(C)nn(-c4ccccc4)c3N3CCOCC3)C2)cc1 (stereo not drawn)
Output line: 87.8

====

- Tested on: SK-MEL-2 melanoma
- Run Description: NCI-60 one-dose screen, 48 h (100 = growth as untreated, 0 = no growth, -100 = all killed)
- Experimental Parameters: 10 µM unless noted
This is part of a sample that, as a whole, favours compounds with a hit. Of some 83,000 tested, about 20% had one in any assay. Active and inactive are the calls of the source. Rule for the calls: active = growth percent below 10; inactive = the rest.
I'd be grateful if you could share measured growth for these entries.

Input line: Name the reported growth value associated with the compound `CC(=O)OCC(=O)[C@@]1(O)CC[C@H]2[C@@H]3CCC4=CC(=O)CC[C@]4(C)[C@@]3(F)[C@@H](O)C[C@@]21C`
Output line: 104% (inactive)

Input line: Name the reported growth value associated with the compound `O=C1c2cccc(NCCN=Cc3ccccc3O)c2C(=O)c2c(NCCN=Cc3ccccc3O)cccc21`
Output line: 46.5% (inactive)

Input line: Name the reported growth value associated with the compound Clc1ccc(C2c3ccccc3-c3nccn32)c(Cl)c1 (stereo not drawn)
Output line: 80.7% (inactive)

Input line: Name the reported growth value associated with the compound `CCCCCc1c(C)[nH]c(/C=C2\N=C(c3ccc[nH]3)C=C2Oc2ccccc2)c1C`
Output line: -63.3% [100 µM] (active)

Input line: Name the reported growth value associated with the compound `O=C(/C=C/c1ccc([N+](=O)[O-])cc1)c1ccc2c3c(cccc13)CC2`
Output line: -24.8% (active)

Input line: Name the reported growth value associated with the compound `O=C(c1ccccc1)c1ccc(Oc2ccc([N+](=O)[O-])cc2[N+](=O)[O-])cc1`
Output line: 34.9% (inactive)

Input line: Name the reported growth value associated with the compound `CCOC(=O)C(C(=O)OCC)C1CCCCC1`
Output line: 110% (inactive)

Input line: Name the reported growth value associated with the compound Cc1ccc(C(NC(=O)c2ccccc2)c2ccc3cccnc3c2O)cc1 (stereo not drawn)
Output line: 18.5% (inactive)

Input line: Name the reported growth value associated with the compound COc1ccc(C2=NN(C(N)=S)C(c3ccc4c(c3)OCO4)C2)cc1 (stereo not drawn)
Output line: 47% (inactive)

Input line: Name the reported growth value associated with the compound `COC(=O)C1(NC(=O)CNC(=O)OCc2ccccc2)CCCC1`
Output line: 102% (inactive)

Input line: Name the reported growth value associated with the compound `N#Cc1ncc(-c2ccc(C(F)(F)F)cc2)c(NC2CCCCCC2)n1`
Output line: 7.62% (active)

Input line: Name the reported growth value associated with the compound `Cc1ccc(OCC(=O)Nc2ccc(Oc3ccccc3)cc2)c([N+](=O)[O-])n1`
Output line: 30.9% (inactive)

Input line: Name the reported growth value associated with the compound `COC(=O)[C@H](Cc1cnc[nH]1)NC(=O)[C@@H](NC(=O)Nc1cc(C(F)(F)F)cc(C(F)(F)F)c1)C(C)C`
Output line: -93% [100 µM] (active)

Input line: Name the reported growth value associated with the compound `N#Cc1c(-c2ccccc2)cc(-c2ccccc2)n(CCCCCCC(=O)O)c1=O`
Output line: 88.8% (inactive)

Input line: Name the reported growth value associated with the compound `N#Cc1c(-c2ccccc2)cc(-c2ccccc2)n(CCCCC(=O)O)c1=O`
Output line: 96.6% (inactive)

Input line: Name the reported growth value associated with the compound `COCCOCCOCCOCCOc1ccc2c(c1)C(=O)c1nc3ncccc3c(=O)n1-2`
Output line: 6.22% (active)

Input line: Name the reported growth value associated with the compound `N/C(=N\c1nc2ccccc2s1)NC(=O)Nc1ccccc1Cl`
Output line: 18.8% (inactive)

Input line: Name the reported growth value associated with the compound `COc1ccc2cc(C3=CC(=O)CCC3)ccc2c1`
Output line: 92.7% (inactive)
